# System Name: human PI3Kα (Homo sapiens, UniProt P42336)
# Construct: made in house
# Sequence (P42336 with tags, fused parts or gaps limits assumed): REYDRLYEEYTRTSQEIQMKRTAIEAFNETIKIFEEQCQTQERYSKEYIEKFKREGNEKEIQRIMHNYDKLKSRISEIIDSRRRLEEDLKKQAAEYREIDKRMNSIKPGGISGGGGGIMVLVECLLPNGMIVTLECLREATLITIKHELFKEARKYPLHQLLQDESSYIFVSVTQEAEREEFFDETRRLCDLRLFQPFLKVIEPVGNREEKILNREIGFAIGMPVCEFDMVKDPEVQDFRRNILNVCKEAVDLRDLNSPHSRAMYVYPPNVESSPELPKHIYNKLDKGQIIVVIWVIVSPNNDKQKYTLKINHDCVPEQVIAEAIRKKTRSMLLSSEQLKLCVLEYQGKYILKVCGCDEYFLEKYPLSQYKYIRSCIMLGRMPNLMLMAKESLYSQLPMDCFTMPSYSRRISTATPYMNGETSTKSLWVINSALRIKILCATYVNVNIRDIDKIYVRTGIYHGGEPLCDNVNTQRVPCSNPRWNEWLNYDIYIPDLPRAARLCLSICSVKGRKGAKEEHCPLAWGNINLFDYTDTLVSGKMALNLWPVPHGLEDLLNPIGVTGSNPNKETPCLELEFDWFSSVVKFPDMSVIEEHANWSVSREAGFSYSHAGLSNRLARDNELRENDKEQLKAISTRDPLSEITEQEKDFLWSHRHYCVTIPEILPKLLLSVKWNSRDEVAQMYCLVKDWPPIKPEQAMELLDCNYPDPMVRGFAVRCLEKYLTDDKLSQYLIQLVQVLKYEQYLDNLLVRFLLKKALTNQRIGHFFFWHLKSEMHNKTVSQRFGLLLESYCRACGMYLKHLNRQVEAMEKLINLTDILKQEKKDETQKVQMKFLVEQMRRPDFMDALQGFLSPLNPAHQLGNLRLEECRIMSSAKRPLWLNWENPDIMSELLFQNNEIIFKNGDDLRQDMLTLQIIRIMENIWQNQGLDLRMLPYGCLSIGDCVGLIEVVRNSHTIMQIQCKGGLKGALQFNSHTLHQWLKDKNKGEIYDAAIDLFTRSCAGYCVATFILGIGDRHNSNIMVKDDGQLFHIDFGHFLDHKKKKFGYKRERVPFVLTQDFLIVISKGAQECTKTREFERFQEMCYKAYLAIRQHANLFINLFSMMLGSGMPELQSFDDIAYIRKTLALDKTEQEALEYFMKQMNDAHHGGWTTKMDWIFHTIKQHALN
# Test Summary: Biochemical PI3Kalpha (KinaseGlo luminescent kinase assay)
# Test Context: biochemical, 1 μM ATP, mean of n measurements
Metric Name: PI3Ka/ IC50 (umol I-1)

Let me check: C[C@H]1[C@@H](CCO)OC(=O)N1c1cc(-c2cnc(N)nc2C(F)(F)F)nc(N2CCOCC2)n1 , system human PI3Kα (Homo sapiens, UniProt P42336), measured PI3Ka/ IC50 is 0.006

Let me check: Nc1ncc(-c2cc(N3C(=O)O[C@H]4COC[C@H]43)nc(N3CCOCC3)n2)c(C(F)(F)F)n1 , system human PI3Kα (Homo sapiens, UniProt P42336), measured PI3Ka/ IC50 is 0.019

Let me check: C[C@H]1OC(=O)N(c2cc(-c3cnc(N)nc3C(F)(F)F)nc(N3CCOCC3)n2)[C@H]1COC=O , system human PI3Kα (Homo sapiens, UniProt P42336), measured PI3Ka/ IC50 is 0.030

[A] Nc1ncc(-c2cc(N3C[C@H](CO)OC3=O)nc(N3CCOCC3)n2)c(C(F)(F)F)n1
[B] C[C@H]1[C@@H](CO)OC(=O)N1c1cc(-c2cnc(N)nc2C(F)(F)F)nc(N2CCOCC2)n1
[C] C[C@@H]1OC(=O)N(c2cc(-c3cnc(N)nc3C(F)(F)F)nc(N3CCOCC3)n2)[C@H]1CO
# input Ascending by PI3Ka/ IC50, please. Field: ranking. Enter the labels in the order requested.
# output B, C, A
(B: 0.006 umol I-1, C: 0.013 umol I-1, A: 0.024 umol I-1)

* * *

# System Name: human PI3Kdelta p110 catalytic subunit (Rat-1 pBABEpuro Myr-HA-hp110 delta) (Homo sapiens, UniProt O00329)
# Construct: Myr (myristoylation signal) (N); HA (N); expressed in transfected cells; host or cells: Rat-1
# Sequence (O00329 whole entry, one chain of several): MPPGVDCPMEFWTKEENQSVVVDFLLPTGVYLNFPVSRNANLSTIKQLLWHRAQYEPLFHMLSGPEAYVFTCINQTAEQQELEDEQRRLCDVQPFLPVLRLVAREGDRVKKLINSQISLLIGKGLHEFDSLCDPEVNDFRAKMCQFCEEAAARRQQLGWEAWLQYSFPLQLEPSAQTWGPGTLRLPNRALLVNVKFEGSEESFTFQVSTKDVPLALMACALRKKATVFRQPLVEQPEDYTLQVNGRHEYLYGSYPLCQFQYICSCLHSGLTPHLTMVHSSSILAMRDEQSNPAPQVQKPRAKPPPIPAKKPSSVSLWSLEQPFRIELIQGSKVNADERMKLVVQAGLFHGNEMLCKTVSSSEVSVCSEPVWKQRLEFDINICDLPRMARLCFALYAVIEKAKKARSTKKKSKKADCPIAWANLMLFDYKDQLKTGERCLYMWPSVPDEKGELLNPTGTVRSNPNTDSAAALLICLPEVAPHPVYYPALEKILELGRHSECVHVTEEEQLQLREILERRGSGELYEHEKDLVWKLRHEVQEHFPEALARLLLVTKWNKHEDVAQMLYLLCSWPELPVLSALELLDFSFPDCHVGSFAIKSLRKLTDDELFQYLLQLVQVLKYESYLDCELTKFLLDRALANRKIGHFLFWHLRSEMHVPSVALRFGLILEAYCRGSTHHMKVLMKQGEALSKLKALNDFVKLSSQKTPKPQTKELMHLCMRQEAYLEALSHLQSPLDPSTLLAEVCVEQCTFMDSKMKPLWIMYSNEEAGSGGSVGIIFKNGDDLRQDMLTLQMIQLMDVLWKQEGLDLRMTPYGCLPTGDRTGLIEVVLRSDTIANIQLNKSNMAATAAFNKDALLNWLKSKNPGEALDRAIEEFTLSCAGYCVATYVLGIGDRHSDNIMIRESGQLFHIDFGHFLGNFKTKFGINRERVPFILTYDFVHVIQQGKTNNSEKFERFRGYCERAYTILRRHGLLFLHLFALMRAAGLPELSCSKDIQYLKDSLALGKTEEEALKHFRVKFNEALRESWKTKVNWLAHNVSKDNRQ
# Test Summary: Cellular assay PI3Kdelta (p-Akt(S473) SureFire, Rat-1_PI3Kdelta cells)
# Type: cell-based
# Test Context: 1 h compound treatment, read-out: Rat1-PI3Kd/ IC50
Metric Name: IC50 (nM)

Check out these entries, answers already filled in.
Sure, the documented IC50 for C[C@H]1OC(=O)N(c2cc(-c3cnc(N)nc3C(F)(F)F)nc(N3CCOCC3)n2)[C@H]1COC=O is 92

Sure, the documented IC50 for C[C@H](O)CC1OC(=O)N(c2cc(-c3cnc(N)nc3C(F)(F)F)nc(N3CCOCC3)n2)[C@H]1C (single isomer, unassigned) is 13

[1] Nc1ncc(-c2cc(N3C(=O)O[C@H]4COC[C@H]43)nc(N3CCOCC3)n2)c(C(F)(F)F)n1
[2] [2H]C1([2H])OC([2H])([2H])C([2H])([2H])N(c2nc(-c3cnc(N)nc3C(F)(F)F)cc(N3C(=O)OC[C@@H]3C)n2)C1([2H])[2H]
# input Which of the two gives a bigger number for IC50: 1 or 2 ? # reply format: chosen label
# output 2

[a] C[C@H]1C(CC(C)(C)O)OC(=O)N1c1cc(-c2cnc(N)nc2C(F)(F)F)nc(N2CCOCC2)n1 (mixture of isomers)
[b] [2H]C1([2H])OC([2H])([2H])C([2H])([2H])N(c2nc(-c3cnc(N)nc3C(F)(F)F)cc(N3C(=O)O[C@H](C)[C@@H]3CO)n2)C1([2H])[2H]
# input Which of the two gives a bigger number for IC50: a or b ? # reply format: chosen label
# output b
(b: 54 nM, a: 11 nM)

* * *

# System Name: mTOR (Mus musculus, UniProt Q9JLN9)
# Construct: endogenous in cells; host or cells: TSC1-/- MEF (mouse embryo fibroblasts)
# Test Summary: Cellular assay mTOR (phospho-T389 S6K1 SureFire in TSC1-/- MEF cells)
# Format: cell-based
# Test Context: TSC1-/- MEF cells; read-out: mTOR S6K(T389)_TSC1ko/ IC50
Metric Name: IC50 (µM)

Check out these entries, answers already filled in.
Sure, the documented IC50 for Nc1ncc(-c2cc(N3C(=O)OC[C@@H]3CCO)nc(N3CCOCC3)n2)c(C(F)(F)F)n1 is 1.26

Sure, the documented IC50 for C[C@H]1[C@@H](CCO)OC(=O)N1c1cc(-c2cnc(N)nc2C(F)(F)F)nc(N2CCOCC2)n1 is 1.11

Sure, the documented IC50 for [2H]C1([2H])OC([2H])([2H])C([2H])([2H])N(c2nc(-c3cnc(N)nc3C(F)(F)F)cc(N3C(=O)OC[C@@H]3C)n2)C1([2H])[2H] is 0.867

Sure, the documented IC50 for Nc1ncc(-c2cc(N3C(=O)O[C@@H]4[C@@H](O)CC[C@@H]43)nc(N3CCOCC3)n2)c(C(F)(F)F)n1 (racemic) is 1.39

[1] Nc1ncc(-c2cc(N3C(=O)O[C@H]4CCCC[C@@H]43)nc(N3CCOCC3)n2)c(C(F)(F)F)n1
[2] Nc1ncc(-c2cc(N3C(=O)OC4C(O)CCC43)nc(N3CCOCC3)n2)c(C(F)(F)F)n1 (single isomer, unassigned) [Example 22A]
[3] C[C@H]1COC(=O)N1c1cc(-c2cnc(N)nc2C(F)(F)F)nc(N2CCOCC2)n1
[4] Nc1ncc(-c2cc(N3CCOC3=O)nc(N3CCOCC3)n2)c(C(F)(F)F)n1 [Example 11, reference compound]
[5] C[C@H]1[C@@H](CO)OC(=O)N1c1cc(-c2cnc(N)nc2C(F)(F)F)nc(N2CCOCC2)n1
# input Ascending by IC50, please. Field: ranking. Enter the labels in the order requested.
# output 5, 1, 3, 4, 2
(5: 0.423 µM, 1: 0.647 µM, 3: 0.964 µM, 4: 1.41 µM, 2: 2.12 µM)

[I] C[C@@H](O)C[C@H]1OC(=O)N(c2cc(-c3cnc(N)nc3C(F)(F)F)nc(N3CCOCC3)n2)[C@H]1C (single isomer, unassigned)
[II] C[C@H]1[C@H](CO)OC(=O)N1c1cc(-c2cnc(N)nc2C(F)(F)F)nc(N2CCOCC2)n1
[III] CC1(CO)COC(=O)N1c1cc(-c2cnc(N)nc2C(F)(F)F)nc(N2CCOCC2)n1 (single isomer, unassigned) [Example 3B]
# input Ascending by IC50, please. Field: ranking. Enter the labels in the order requested.
# output II, III, I
(II: 0.727 µM, III: 1.11 µM, I: 1.83 µM)

* * *

# System Name: human PI3Kalpha p110 catalytic subunit (Rat-1 pBABEpuro Myr-HA-hp110alpha) (Homo sapiens, UniProt P42336)
# Construct: Myr (myristoylation signal) (N); HA (N)
# Sequence (P42336 whole entry): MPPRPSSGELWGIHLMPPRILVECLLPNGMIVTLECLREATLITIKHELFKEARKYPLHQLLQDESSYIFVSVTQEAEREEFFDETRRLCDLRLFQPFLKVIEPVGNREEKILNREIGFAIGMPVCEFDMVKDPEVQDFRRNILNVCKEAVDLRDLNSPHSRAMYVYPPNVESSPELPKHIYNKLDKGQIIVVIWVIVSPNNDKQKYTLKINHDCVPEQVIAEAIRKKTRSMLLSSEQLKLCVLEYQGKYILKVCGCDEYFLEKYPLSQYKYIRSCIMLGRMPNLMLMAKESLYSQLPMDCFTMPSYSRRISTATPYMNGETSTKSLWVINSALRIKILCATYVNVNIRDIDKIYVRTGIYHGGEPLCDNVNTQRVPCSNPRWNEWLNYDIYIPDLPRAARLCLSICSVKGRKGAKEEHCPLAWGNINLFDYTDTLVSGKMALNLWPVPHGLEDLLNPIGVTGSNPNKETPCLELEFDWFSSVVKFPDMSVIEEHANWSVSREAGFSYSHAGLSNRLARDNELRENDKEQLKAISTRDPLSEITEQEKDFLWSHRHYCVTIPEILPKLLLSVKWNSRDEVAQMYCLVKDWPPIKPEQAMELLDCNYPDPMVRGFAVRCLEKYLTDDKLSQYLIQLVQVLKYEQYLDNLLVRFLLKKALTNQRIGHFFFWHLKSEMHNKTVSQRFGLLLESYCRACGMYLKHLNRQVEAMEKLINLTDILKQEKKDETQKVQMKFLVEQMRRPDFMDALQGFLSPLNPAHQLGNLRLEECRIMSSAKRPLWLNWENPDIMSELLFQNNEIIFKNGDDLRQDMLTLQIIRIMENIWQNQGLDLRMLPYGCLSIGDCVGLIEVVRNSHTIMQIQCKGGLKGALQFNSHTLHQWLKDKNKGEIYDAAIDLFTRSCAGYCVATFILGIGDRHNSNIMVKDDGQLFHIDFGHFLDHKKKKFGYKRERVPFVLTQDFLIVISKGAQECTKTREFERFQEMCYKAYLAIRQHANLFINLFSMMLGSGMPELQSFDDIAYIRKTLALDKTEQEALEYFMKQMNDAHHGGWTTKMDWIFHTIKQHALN
# Sequence (Q63787 whole entry partner): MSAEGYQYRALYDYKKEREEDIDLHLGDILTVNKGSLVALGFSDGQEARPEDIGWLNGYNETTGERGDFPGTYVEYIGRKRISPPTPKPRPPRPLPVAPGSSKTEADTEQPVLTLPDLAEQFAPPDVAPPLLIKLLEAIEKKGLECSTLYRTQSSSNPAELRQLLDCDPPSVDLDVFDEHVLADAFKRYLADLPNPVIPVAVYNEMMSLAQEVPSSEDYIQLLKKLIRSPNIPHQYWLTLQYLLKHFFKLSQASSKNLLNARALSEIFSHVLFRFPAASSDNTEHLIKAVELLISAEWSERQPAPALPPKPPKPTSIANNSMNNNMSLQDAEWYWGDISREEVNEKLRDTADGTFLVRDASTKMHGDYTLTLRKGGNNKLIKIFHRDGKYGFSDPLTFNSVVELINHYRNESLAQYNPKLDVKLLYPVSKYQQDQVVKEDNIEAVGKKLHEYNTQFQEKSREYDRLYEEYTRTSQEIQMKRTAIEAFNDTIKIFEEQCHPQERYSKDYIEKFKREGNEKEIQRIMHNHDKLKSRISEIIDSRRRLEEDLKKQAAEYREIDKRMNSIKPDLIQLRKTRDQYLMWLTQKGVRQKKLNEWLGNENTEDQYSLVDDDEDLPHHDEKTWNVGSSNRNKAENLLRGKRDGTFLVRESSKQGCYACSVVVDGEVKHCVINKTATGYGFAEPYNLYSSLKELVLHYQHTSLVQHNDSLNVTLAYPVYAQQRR
# Test Summary: Cellular assay PI3Kalpha (p-Akt(S473) SureFire, Rat-1_PI3Kalpha cells)
# Test Context: 1 h compound treatment, read-out: Rat1-PI3Ka/ IC50
Metric Name: IC50 (nM)

Check out these entries, answers already filled in.
Sure, the documented IC50 for Nc1ncc(-c2cc(N3C(=O)OC[C@@H]3CCO)nc(N3CCOCC3)n2)c(C(F)(F)F)n1 is 147

Sure, the documented IC50 for COC[C@H]1COC(=O)N1c1cc(-c2cnc(N)nc2C(F)(F)F)nc(N2CCOCC2)n1 is 93

Sure, the documented IC50 for Nc1ncc(-c2cc(N3C[C@H](CO)OC3=O)nc(N3CCOCC3)n2)c(C(F)(F)F)n1 is 158

Sure, the documented IC50 for Nc1ncc(-c2cc(N3C(=O)O[C@@H]4[C@@H](O)CC[C@@H]43)nc(N3CCOCC3)n2)c(C(F)(F)F)n1 (racemic) is 95

Sure, the documented IC50 for CC1(CO)COC(=O)N1c1cc(-c2cnc(N)nc2C(F)(F)F)nc(N2CCOCC2)n1 (single isomer, unassigned) [Example 3B] is 215

Sure, the documented IC50 for C[C@H]1C(CC(C)(C)O)OC(=O)N1c1cc(-c2cnc(N)nc2C(F)(F)F)nc(N2CCOCC2)n1 (mixture of isomers) is 58

Sure, the documented IC50 for C[C@H](O)CC1OC(=O)N(c2cc(-c3cnc(N)nc3C(F)(F)F)nc(N3CCOCC3)n2)[C@H]1C (single isomer, unassigned) is 45

Sure, the documented IC50 for Nc1ncc(-c2cc(N3C(=O)OC4C(O)CCC43)nc(N3CCOCC3)n2)c(C(F)(F)F)n1 (single isomer, unassigned) [Example 22B] is 148

Sure, the documented IC50 for C[C@H]1COC(=O)N1c1cc(-c2cnc(N)nc2C(F)(F)F)nc(N2CCOCC2)n1 is 48

Sure, the documented IC50 for [2H]C1([2H])OC([2H])([2H])C([2H])([2H])N(c2nc(-c3cnc(N)nc3C(F)(F)F)cc(N3C(=O)O[C@H](C)[C@@H]3CO)n2)C1([2H])[2H] is 81

[I] C[C@H]1OC(=O)N(c2cc(-c3cnc(N)nc3C(F)(F)F)nc(N3CCOC[C@@H]3C)n2)[C@H]1CO
[II] Nc1ncc(-c2cc(N3C(=O)OC[C@@H]3CO)nc(N3CCOCC3)n2)c(C(F)(F)F)n1
[III] Nc1ncc(-c2cc(N3C[C@@H](CO)OC3=O)nc(N3CCOCC3)n2)c(C(F)(F)F)n1
# input Ascending by IC50, please. Field: ranking. Enter the labels in the order requested.
# output I, II, III
(I: 61 nM, II: 120 nM, III: 277 nM)
